assay: Cytotoxicity against human SH-SY5Y cells assessed as inhibition of cell viability incubated for 48 hrs by MTT assay; format: toxicity, cell-based
Answer each item with its documented IC50 at 48 h.

* O=C(COc1ccc(Cl)cc1)NCC1CCN(Cc2ccccc2)CC1 | > 100 µM
* O=C(COc1ccc(Cl)cc1[N+](=O)[O-])NCCN1CCN(Cc2ccccc2)CC1 | > 100 µM
* O=C(COc1cc(F)ccc1[N+](=O)[O-])NCCN1CCN(Cc2ccccc2)CC1 | > 100 µM

Given the entry "O=C(COc1ccc(CCc2ccccc2)cc1)NCCN1CCN(Cc2ccccc2)CC1" , report its measured IC50 at 48 h. 34.8 µM
